Source of measurements: patent US11186588B2

test: Pharmacokinetics test in rats (oral administration); type: in vivo, LEW/CrlCrlj rats; conditions: male, LEW/CrlCrlj, rat, plasma, 10 mg/kg, oral 2 mg/mL solution at 5 mL/kg, mean n = 4, read-out: Tmax
measuredMetric: Tmax
Express the reported value numerically, then name its unit.

# Tmax lookup, item `CC(=O)Nc1ccc(C2=NN(Cc3cccnc3)c3nnc(C)n3-c3sc(C)c(C)c32)cc1`
45 min

###

Tested on: NF-κB
Assay: NF-κB reporter gene assay (TNF-α stimulated A549/NF-κB-luc cells)
Type: cell-based
Conditions: Homo sapiens, TNF-α stimulation
Experimental: In order to evaluate NF-κB inhibitory activity of the present compounds, NF-κB reporter gene assay was carried out. The specific method is described below. […] A549/NF-κB-luc cells (available from Panomics, Cat No. LR0051) were prepared at 375,000 cells/mL in the culture medium. […] After 30 to 90 minutes of the addition of the Steady-Glo reagent, the luminescence intensity of each well was detected by EnVision multilabel counter (available from PerkinElmer). […]
measuredMetric: pIC50
Reminder that pIC50 is minus the log10 of a molar concentration.

Examples with answers:
{"cpdSmiles": "Cc1sc2c(c1C)C(c1ccc(Cl)cc1)=NN(Cc1cccc(Cl)c1)c1nnc(C)n1-2", "testResult": 7.11}
{"cpdSmiles": "Cc1sc2c(c1C)C(c1ccc(Cl)cc1)=NN(Cc1cccc(F)n1)c1nnc(C)n1-2", "testResult": 7.52}
{"cpdSmiles": "CC(=O)Nc1ccc(C2=NN(Cc3cncc(O)c3)c3nnc(C)n3-c3sc(C)c(C)c32)cc1", "testResult": 5.78}

Attention now turns to another entry.
Looking for the measured pIC50 of `Cc1sc2c(c1C)C(c1ccc(Cl)cc1)=NN(CCc1c[nH]c3ccccc13)c1nnc(C)n1-2` , can you help?
5.01

###

test system: NF-κB; assay: NF-κB reporter gene assay (TNF-α stimulated A549/NF-κB-luc cells); assay type: cell-based; details: Homo sapiens, TNF-α stimulation
measuredMetric: IC50 (nM)
Give the value, in units of nM, as a plain number.

Previously resolved entries follow.
{"cpdSmiles": "COc1cccc(CN2N=C(c3ccc(Cl)cc3)c3c(sc(C)c3C)-n3c(C)nnc32)c1", "IC50 (nM)": 86.4}
{"cpdSmiles": "Cc1nnc2n1-c1sccc1C(c1ccc(Cl)cc1)=NN2Cc1cccnc1", "IC50 (nM)": 377}
{"cpdSmiles": "COc1ccccc1C1=NN(Cc2cccnc2)c2nnc(C)n2-c2sc(C)c(C)c21", "IC50 (nM)": 2140}

Continue with the next molecule.
Return reported IC50; argument: `Cc1c(CO)sc2c1C(c1ccc(N)cc1)=NN(Cc1cccnc1)c1nnc(C)n1-2`
1840

###

assay: Pharmacokinetics test in rats (oral administration); type: in vivo, LEW/CrlCrlj rats; conditions: plasma, 3 h after oral 2 mg/mL solution at 5 mL/kg, mean n = 4
measuredMetric: Concentration (ng/mL), sampling time 3 h

Reference set, count: 4
{"compound": "CC(=O)Nc1ccc(C2=NN(Cc3cccnc3)c3nnc(C)n3-c3sc(C)c(C)c32)cc1.CC(=O)Nc1ccc(C2=NN(Cc3cccnc3)c3nnc(C)n3-c3sc(C)c(C)c32)cc1.O=C(O)/C=C/C(=O)O [0.5 Fumarate of Example 71]", "Concentration (ng/mL), sampling time 3 h": "4.28 ng/mL"}
{"compound": "CC(=O)Nc1ccc(C2=NN(Cc3cccnc3)c3nnc(C)n3-c3sc(C)c(C)c32)cc1.CC(=O)Nc1ccc(C2=NN(Cc3cccnc3)c3nnc(C)n3-c3sc(C)c(C)c32)cc1.O=C(O)CCC(=O)O [0.5 Succinate of Example 71]", "Concentration (ng/mL), sampling time 3 h": "6.88 ng/mL"}
{"compound": "CC(=O)Nc1ccc(C2=NN(Cc3cccnc3)c3nnc(C)n3-c3sc(C)c(C)c32)cc1.Cl [1 Hydrochloride of Example 71]", "Concentration (ng/mL), sampling time 3 h": "6.75 ng/mL"}
{"compound": "CC(=O)Nc1ccc(C2=NN(Cc3cccnc3)c3nnc(C)n3-c3sc(C)c(C)c32)cc1.Cc1ccc(S(=O)(=O)O)cc1 [1 Tosylate of Example 71]", "Concentration (ng/mL), sampling time 3 h": "7.04 ng/mL"}

// lookup Concentration (ng/mL), sampling time 3 h for CC(=O)Nc1ccc(C2=NN(Cc3cccnc3)c3nnc(C)n3-c3sc(C)c(C)c32)cc1.O=C(O)/C=C\C(=O)O [1 Maleate of Example 71]
7.69 ng/mL

###

test: Pharmacokinetics test in rats (oral administration); type: in vivo, LEW/CrlCrlj rats; settings: male, LEW/CrlCrlj, rat, plasma, 10 mg/kg, oral 2 mg/mL solution at 5 mL/kg, mean n = 4
measuredMetric: AUC(0-inf) (µg·h/mL)
Quick note: give the figure in µg·h/mL, leave out the unit.

Can you look up the measured AUC(0-inf) of `CC(=O)Nc1ccc(C2=NN(Cc3cccnc3)c3nnc(C)n3-c3sc(C)c(C)c32)cc1` for me?
0.0618

###

biological target: Recombinant BRD4 (44-168) protein (Homo sapiens (Human), UniProt O60885); assay: BRD4-H4KAc4 binding assay (amplified luminescence proximity homogeneous assay, AlphaScreen); settings: 10 uM
inhibition at 10 µM listing for selected compounds.
Please state the figure in %; there is no need to write the unit.

In the examples that follow, each entry is paired with its recorded inhibition at 10 µM.
{"compound": "Cc1sc2c(c1C)C(c1ccc(Cl)cc1)=NN(Cc1cccc(Cl)c1)c1nnc(C)n1-2 [Example 16]", "subjectOfTest": "Recombinant BRD4 (44-168) protein (Homo sapiens (Human), UniProt O60885)", "inhibition at 10 µM / %": 100}
{"compound": "COc1ccc(CN2N=C(c3ccc(Cl)cc3)c3c(sc(C)c3C)-n3c(C)nnc32)cn1 [Example 50]", "subjectOfTest": "Recombinant BRD4 (44-168) protein (Homo sapiens (Human), UniProt O60885)", "inhibition at 10 µM / %": 100}

Which inhibition at 10 µM is reported for this compound? COc1ccc(CN2N=C(c3ccc(Cl)cc3)c3c(sc(C)c3C)-n3c2nnc3C(F)(F)F)cc1 [Example 69]
52

I am curious: what inhibition at 10 µM value has been reported for Cc1sc2c(c1C)C(c1ccc(Cl)cc1)=NN(Cc1ccccc1)c1nnc(C)n1-2 [Example 3] ?
100

// returns reported inhibition at 10 µM for input COc1cccc(CN2N=C(c3ccc(Cl)cc3)c3c(sc(C)c3C)-n3c(C)nnc32)n1 [Example 46]
100

For Cc1sc2c(c1C)C(c1ccccc1)=NNc1nnc(C)n1-2 [Example 27] , what is its reported inhibition at 10 µM?
101

Which inhibition at 10 µM reading was recorded for the compound Cc1sc2c(c1C)C(c1ccc(Cl)cc1)=NN(CCc1ccccc1)c1nnc(C)n1-2 [Example 19] ?
96.6

Please give the measured inhibition at 10 µM for this compound: Cc1sc2c(c1C)C(c1cccc(Cl)c1)=NN(Cc1cccnc1)c1nnc(C)n1-2 [Example 73]
100

###

system: NF-κB; assay: NF-κB reporter gene assay (TNF-α stimulated A549/NF-κB-luc cells); assay type: cell-based; conditions: Homo sapiens, TNF-α stimulation
Measured log10 of IC50 by item
Base-10 log of IC50, unit nM.

Answered examples (3):
{"compound": "Cc1sc2c(c1C)C(c1ccc(Cl)cc1)=NN(Cc1cccc(C(F)(F)F)c1)c1nnc(C)n1-2 [Example 18]", "log10 of IC50": 2.16}
{"compound": "COc1ncc(F)cc1CN1N=C(c2ccc(Cl)cc2)c2c(sc(C)c2C)-n2c(C)nnc21 [Example 89]", "log10 of IC50": 2.75}
{"compound": "Cc1sc2c(c1C)C(c1ccc(N)cc1)=NN(Cc1ccc(O)nc1)c1nnc(C)n1-2 [Example 104]", "log10 of IC50": 3.60}

log10 of IC50 lookup needed for Cc1sc2c(c1C)C(c1cccc(Cl)c1)=NN(Cc1cccnc1)c1nnc(C)n1-2 [Example 73] , thanks.
2.39

Suppose we examine the compound COc1ccccc1CN1N=C(c2ccc(Cl)cc2)c2c(sc(C)c2C)-n2c(C)nnc21 [Example 34] ; what log10 of IC50 value has been reported?
2.79

Looking for the measured log10 of IC50 of Cc1sc2c(c1C)C(c1ccc(Cl)cc1)=NN(Cc1ccc(C(C)(C)C)cc1)c1nnc(C)n1-2 [Example 7] , can you help?
2.87

Please give the measured log10 of IC50 for this compound: COc1ccc(CN2N=C(c3ccc(Cl)cc3)c3c(sc(C)c3C)-n3c(C)nnc32)nc1 [Example 47]
2.74

Given the compound Cc1sc2c(c1C)C(c1ccccc1)=NN(Cc1ccccc1)c1nnc(C)n1-2 [Example 29] , what is its reported log10 of IC50?
2.42

###

biological target: Recombinant BRD4 (44-168) protein (Homo sapiens (Human), UniProt O60885); assay: BRD4-H4KAc4 binding assay (amplified luminescence proximity homogeneous assay, AlphaScreen); conditions: 10 uM
The reader will find reported inhibition at 10 µM values listed item by item below.
Give the number; % is assumed, so skip it.

{"cpdSmiles": "COc1cccc(CN2N=C(c3ccccc3)c3c(sc(C)c3C)-n3c(C)nnc32)c1", "unitsOfMeasure": "%", "inhibition at 10 µM": 99.2}
{"cpdSmiles": "COc1cccnc1CN1N=C(c2ccc(Cl)cc2)c2c(sc(C)c2C)-n2c(C)nnc21", "unitsOfMeasure": "%", "inhibition at 10 µM": 99.9}
{"cpdSmiles": "Cc1sc2c(c1C)C(c1ccc(Cl)cc1)=NN(Cc1cccnc1C(F)(F)F)c1nnc(C)n1-2", "unitsOfMeasure": "%", "inhibition at 10 µM": 100}
{"cpdSmiles": "COc1ccc(C2=NN(Cc3cccnc3)c3nnc(C)n3-c3sc(C)c(C)c32)cc1", "unitsOfMeasure": "%", "inhibition at 10 µM": 100}
{"cpdSmiles": "Cc1sc2c(c1C)C(c1ccc(Cl)cc1)=NN(Cc1ccnc(F)c1)c1nnc(C)n1-2", "unitsOfMeasure": "%", "inhibition at 10 µM": 100}
{"cpdSmiles": "COc1cccc(CN2N=C(c3ccc(Cl)cc3)c3c(sc(C)c3C)-n3c(C)nnc32)c1", "unitsOfMeasure": "%", "inhibition at 10 µM": 100}
{"cpdSmiles": "Cc1ccc(CN2N=C(c3ccc(Cl)cc3)c3c(sc(C)c3C)-n3c(C)nnc32)cc1", "unitsOfMeasure": "%", "inhibition at 10 µM": 100}
{"cpdSmiles": "COC(=O)c1ncccc1CN1N=C(c2ccc(Cl)cc2)c2c(sc(C)c2C)-n2c(C)nnc21", "unitsOfMeasure": "%", "inhibition at 10 µM": 100}

Next molecule, inhibition at 10 µM to be filled in.
May I ask what inhibition at 10 µM has been recorded for `Cc1sc2c(c1C)C(c1ccc(Cl)cc1)=NN(Cc1cccc(N)c1)c1nnc(C)n1-2` ?
100
